Provide the recorded melting point for the entries that follow.

Task: Please report the recorded melting point for `Nc1nnc(C23CC4CC(CC(C4)C2)C3)s1` .
Output: 197 to 199 °C

Task: Please report the recorded melting point for `Cc1ccc(C(=O)O)cc1NC(=O)c1ccccc1` .
Output: 269 to 271 °C

Task: Please report the recorded melting point for `CC(C)(C)OC(=O)N1CC=C(n2c(=O)[nH]c3ccccc32)CC1` .
Output: 201 to 203 °C

Task: Please report the recorded melting point for `CCCCn1c(CCC(=O)O)nc2cc(S(=O)(=O)N3CCOCC3)ccc21` .
Output: 136 to 138 °C

Task: Please report the recorded melting point for `Cc1ncc(-c2ccc(N)cc2)o1` .
Output: 126 to 128 °C

Task: Please report the recorded melting point for `O=C(O)c1ccc2c(c1)C(=O)NC2=O` .
Output: 267 to 269 °C

Task: Please report the recorded melting point for `CC(=O)Nc1ccc(C(=O)O)nc1` .
Output: 204 to 206 °C

Task: Please report the recorded melting point for `O=c1[nH]c2cc(Br)ccc2o1` .
Output: 209 to 211 °C

Task: Please report the recorded melting point for `O=C(O)C1CCN(C(=O)c2cccc3ccccc23)CC1` .
Output: 190 to 192 °C

Task: Please report the recorded melting point for `O=C(O)c1ccc(-c2ccc(OC(F)F)cc2)s1` .
Output: 209 to 211 °C

Task: Please report the recorded melting point for `CCCCN(c1ccccc1)S(=O)(=O)c1cccc(C(=O)O)c1` .
Output: 161 to 163 °C

Task: Please report the recorded melting point for `OCCSc1ccnc2cc(Cl)ccc12` .
Output: 111 to 113 °C
